Test system: RARb:RXRa (NR concentration 270 nM, RXRa partner concentration 90 nM)
assay remarks: PBM binding z-score (relative to random genomic background probes); higher = stronger binding; sequences stand for … in GC…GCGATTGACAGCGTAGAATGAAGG
# cutoff 3 applies to PBM binding z-score; >= gives Satisfied, < gives Not satisfied

Answered cases to consult:
| entry sequence | qualitative label |
| --- | --- |
| CTCGAAAGGTCGTGCTCACGTGAGTATACCAAAC | Satisfied |
| ATCTCTAGGTAAGGCTCAGTTCAGTGAAGAACGC | Not satisfied |
| AATACAGGGTCCCTAGGCCAGAGTAGGTACGAAT | Not satisfied |
| ACAGACAGGTCAGTGAAGGTAACTCAGCTGGACG | Satisfied |
| ACTATTAGTTGAGACAAGGGCAACCGATAGGTTG | Not satisfied |
| GCTCGGAGGACAAAGTCAGAGCTTTGTCCGTAGA | Not satisfied |
| TCATATAGGCAAACAGGTGAAAGTCCGTAAGTTA | Not satisfied |
| CCTCGGAGGACAACAGGAGATCAGAGCTGCCAGA | Not satisfied |
| CGAACTAGGTCAACCAGGACAGTGAATACATTGA | Satisfied |
| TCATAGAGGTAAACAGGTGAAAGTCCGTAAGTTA | Not satisfied |

Problem: Hi team, for CAAACTAAGTCAAGGTCAAAGTCGGTTTGTGCCA , is the recorded PBM binding z-score at or above 3?
Result: Satisfied

Problem: Hi team, for CCTAGTTGGTCAAGGTCACCCACGCTATAGGTAC , is the recorded PBM binding z-score at or above 3?
Result: Satisfied

Problem: Hi team, for TCATATAGGTAAATGTGAAAGTCGAACGATATGA , is the recorded PBM binding z-score at or above 3?
Result: Not satisfied

Problem: Hi team, for ATCTCTAGGTAAAGTTCAGAGAAAGATCGATAGA , is the recorded PBM binding z-score at or above 3?
Result: Not satisfied

Problem: Hi team, for CTCGAAAGGTCGTTCTCAGGTGAGTATACCAAAC , is the recorded PBM binding z-score at or above 3?
Result: Satisfied

Problem: Hi team, for CCTTACGGGTCAAGGTCATAGCACGGGTGGTACG , is the recorded PBM binding z-score at or above 3?
Result: Satisfied
